- Assay Overview: Permeability and efflux in CALU-3 cells
- Format: in vitro ADME
- Experimental Context: human; Papp basal-to-apical, CALU-3 monolayers, pH 7.4, 37° C., 10 μM compound; exponent E−07; read-out: P BA
Below, each entry is listed alongside its reported Papp B→A at 90 min, 10 μM.
Result Type: Papp B→A at 90 min, 10 μM

C[N+]1(C)CCN(CC(=O)N[C@H]2CC[C@H](N/C(N)=N/C(=O)c3nc(Cl)c(N)nc3N)CC2)CC1.[I-] [Example 3.1] | 0.229 ×10⁻⁶ cm/s
C[C@@H](N)C(=O)N[C@H]1CC[C@H](N/C(N)=N/C(=O)c2nc(Cl)c(N)nc2N)CC1.O=C(O)C(F)(F)F [Example 6.1] | 0.225 ×10⁻⁶ cm/s
CN1CCN(S(=O)(=O)N[C@H]2CC[C@H](N/C(N)=N/C(=O)c3nc(Cl)c(N)nc3N)CC2)CC1.O=C(O)C(F)(F)F [Example 8] | 0.354 ×10⁻⁶ cm/s
N/C(=N\C(=O)c1nc(Cl)c(N)nc1N)N[C@H]1CC[C@H](N)CC1 [Example 6.2] | < 0.272 ×10⁻⁶ cm/s

###

- Assay Overview: Permeability and efflux in CALU-3 cells
- Format: in vitro ADME
- Experimental Context: human; Papp basal-to-apical, CALU-3 monolayers, pH 7.4, 37° C., 10 μM compound; exponent E−06 printed in the row below (r3); read-out: P BA
- Experimental: Permeability and Efflux in CALU-3 Cells: Permeability measurements across polarized, confluent CALU-3 cell monolayers grown on permeable filter supports are used to provide information on the potential of a compound to pass the lung epithelium. CALU-3 cells (1-2×10^5 cells/1 cm^2 area) are seeded on filter inserts (Costar transwell polycarbonate filters, 0.4 μm pore size) and cultured (DMEM) for 10-12 days until tight monolayers are formed. […]
Result Type: Papp B→A at 90 min, 10 μM

CN(C)CCCN[C@H]1CC[C@H](N/C(N)=N/C(=O)c2nc(Cl)c(N)nc2N)CC1 | < 2.72 ×10⁻⁶ cm/s

# credit: patent US9126982B2
